Data origin, for the record: ChEMBL document CHEMBL1123186

molecular target: DNA polymerase alpha catalytic subunit (Homo sapiens); assay: Compound was tested for the inhibition of HeLa DNA polymerase; assay type: functional; conditions: concentration not given here
reported endpoint: inhibition (%)

1 = Nc1nc2c(ncn2COC(CO)CO)c(=O)[nH]1 [GANCICLOVIR]
2 = Nc1nc(O)c2ncn(COCC(O)CO)c2n1 (centres undefined)
3 = Nc1nc2c(ncn2COCCO)c(=O)[nH]1 [ACYCLOVIR]
4 = Nc1nc(O)c2ncn(COCC(O)CO)c2n1 (single isomer, unassigned; form 1)
Arrange items by their inhibition values in increasing order. // ordering of labels required in reply
2, 4, 1, 3
(2: 6%, 4: 10%, 1: 17%, 3: 37%)
